TESTED_SYSTEM: BuChE normal (Homo sapiens)
Assay type: biochemical
For each record, write down the corresponding second order rate constants, ki, for inactivation.

Problem: Give its second order rate constants, ki, for inactivation value. Item: CCCCCCCNC(=O)Oc1ccc2c(c1)C1(C)CCN(C)C1N2C (single isomer, unassigned)
Result: 1.1 × 10^7 ± 0.3 × 10^7

Problem: Note, next up: CNC(=O)Oc1ccc2c(c1)[C@]1(C)CCN(C)[C@@H]1N2C
Result: 3.8 × 10^5 ± 1.6 × 10^5

Problem: Note, next up: CN(C)C(=O)Oc1ccc[n+](C)c1
Result: 1.9 × 10^3 ± 0.2 × 10^3

Problem: Note, next up: CCN(C)C(=O)Oc1cccc([C@H](C)N(C)C)c1
Result: 1.4 × 10^4 ± 0.3 × 10^4

---

TESTED_SYSTEM: diisopropylphosphoryl-BuChE (Homo sapiens, UniProt P06276)
Sequence (P06276 29-602): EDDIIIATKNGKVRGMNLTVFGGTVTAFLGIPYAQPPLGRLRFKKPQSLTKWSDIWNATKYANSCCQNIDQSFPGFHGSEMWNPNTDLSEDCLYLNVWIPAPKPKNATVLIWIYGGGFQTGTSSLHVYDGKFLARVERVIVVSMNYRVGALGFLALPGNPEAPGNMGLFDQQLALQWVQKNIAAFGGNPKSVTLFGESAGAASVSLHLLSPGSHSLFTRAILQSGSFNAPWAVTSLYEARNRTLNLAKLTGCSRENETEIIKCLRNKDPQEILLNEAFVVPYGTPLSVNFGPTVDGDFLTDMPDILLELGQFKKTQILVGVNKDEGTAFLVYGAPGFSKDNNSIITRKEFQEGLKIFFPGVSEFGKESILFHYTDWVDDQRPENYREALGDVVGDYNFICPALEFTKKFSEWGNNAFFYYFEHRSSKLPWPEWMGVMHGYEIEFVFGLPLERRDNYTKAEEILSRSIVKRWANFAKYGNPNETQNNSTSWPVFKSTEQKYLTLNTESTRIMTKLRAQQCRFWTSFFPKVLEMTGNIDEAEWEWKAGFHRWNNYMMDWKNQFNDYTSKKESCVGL
QUANTITY: pKd
FYI, pKd means -log10 of a concentration in mol per litre.

Problem: Give its pKd value. Item: C[n+]1ccccc1C=NO [PAM, Pyridine-2-aldoxime methiodide]
Result: 3.52

---

TESTED_SYSTEM: diisopropylphosphoryl-Chimera
QUANTITY: Kd (µM)
Lab book: enter the figure in µM, no units written.

Problem: Give its Kd value. Item: C[n+]1ccccc1C=NO [PAM, Pyridine-2-aldoxime methiodide]
Result: 340

The measured values listed here are drawn from patent US5807671A.
